# systemUnderTest: ~100 representative kinases (Homo sapiens)
# Construct: Recombinant protein kinase domains with a concentration of 2 μM
# Sequence (Q8TF76 1-798): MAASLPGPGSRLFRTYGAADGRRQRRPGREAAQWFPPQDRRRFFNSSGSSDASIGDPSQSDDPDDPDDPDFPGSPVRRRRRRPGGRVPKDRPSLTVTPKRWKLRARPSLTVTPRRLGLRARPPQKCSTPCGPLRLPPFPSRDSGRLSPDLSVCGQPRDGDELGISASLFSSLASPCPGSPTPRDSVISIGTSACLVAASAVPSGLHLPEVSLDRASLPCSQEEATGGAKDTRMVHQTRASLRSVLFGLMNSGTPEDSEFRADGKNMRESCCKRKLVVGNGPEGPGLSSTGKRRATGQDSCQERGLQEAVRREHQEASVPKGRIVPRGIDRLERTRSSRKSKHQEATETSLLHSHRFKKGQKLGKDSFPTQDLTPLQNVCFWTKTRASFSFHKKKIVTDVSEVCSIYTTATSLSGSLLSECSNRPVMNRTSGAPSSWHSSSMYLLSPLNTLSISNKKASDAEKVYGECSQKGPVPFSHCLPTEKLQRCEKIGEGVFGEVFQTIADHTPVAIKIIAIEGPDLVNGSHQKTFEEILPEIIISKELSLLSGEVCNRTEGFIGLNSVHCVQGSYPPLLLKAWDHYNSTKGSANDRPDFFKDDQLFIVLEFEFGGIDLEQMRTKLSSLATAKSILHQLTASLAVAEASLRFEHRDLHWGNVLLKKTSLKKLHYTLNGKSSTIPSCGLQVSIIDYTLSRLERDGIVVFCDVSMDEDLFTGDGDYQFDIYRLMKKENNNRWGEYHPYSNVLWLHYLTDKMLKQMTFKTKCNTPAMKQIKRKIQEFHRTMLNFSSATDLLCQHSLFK
# experimentalProtocol: DSF 100 kinase selectivity screen;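 further: compound tested at 20 µM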
# Format: binding
# recordedConditions: protein GSG2; average of three replicates
Under this convention, Y denotes dTm strictly below -2 K and N denotes dTm at or above -2 K.

• COc1cc(NC(=O)C2(C(=O)Nc3cccc(-c4c[nH]c5ncnc(N6CCOCC6)c45)c3)CC2)ccc1F = Y
• O=C(Nc1ccc(Cl)cc1)C1(C(=O)Nc2cccc(-c3c[nH]c4ncnc(N5CCOCC5)c34)c2)CC1 = N
• CCSc1nc(NC)c2c(-c3cccc(NC(=O)Nc4cc(C(C)(C)C)nn4-c4ccc(C)cc4)c3)c[nH]c2n1 = N
• Cc1cc(NC(=O)C2(C(=O)Nc3cccc(-c4c[nH]c5ncnc(N6CCOCC6)c45)c3)CC2)ccc1F = Y
• O=C(Nc1cccc(-c2c[nH]c3ncnc(N4CCOCC4)c23)c1)C1(C(=O)Nc2ccc(F)c(F)c2)CC1 = Y
• O=C(Nc1ccccc1)C1(C(=O)Nc2cccc(-c3c[nH]c4ncnc(N5CCOCC5)c34)c2)CC1 = N
